Where do the numbers come from? From the supplement of paper PMC11196671.

- test description: terephthalic acid (TPA) released, HPLC; higher = more TPA released; extreme values may be limits of the assay
- test parameters: PET substrate: cryPow; 70 °C; pH 4.5; 24 h
Below: a set of entries, each annotated with reported terephthalic acid.
Record the result as number plus unit.

| sequence | terephthalic acid |
| --- | --- |
| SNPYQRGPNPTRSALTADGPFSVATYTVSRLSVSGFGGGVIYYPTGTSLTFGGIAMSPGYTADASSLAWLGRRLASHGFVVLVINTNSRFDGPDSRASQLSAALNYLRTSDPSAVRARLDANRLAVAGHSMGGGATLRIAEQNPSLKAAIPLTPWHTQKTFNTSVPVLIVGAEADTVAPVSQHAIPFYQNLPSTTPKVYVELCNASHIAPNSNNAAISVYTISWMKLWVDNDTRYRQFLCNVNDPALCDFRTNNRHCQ [LCC-ICCG DAQI] | 0 mM |

Then this sequence:
Noted for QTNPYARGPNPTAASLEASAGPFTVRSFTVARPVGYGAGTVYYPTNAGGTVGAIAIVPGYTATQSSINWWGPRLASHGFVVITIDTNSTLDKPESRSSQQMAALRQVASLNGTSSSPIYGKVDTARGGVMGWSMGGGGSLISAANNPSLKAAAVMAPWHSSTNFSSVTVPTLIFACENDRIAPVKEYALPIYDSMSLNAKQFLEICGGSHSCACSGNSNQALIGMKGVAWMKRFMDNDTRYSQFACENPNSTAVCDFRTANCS [HotPETase] : its terephthalic acid reads 0 mM

* * *

- test description: terephthalic acid (TPA) released, HPLC; higher = more TPA released; extreme values may be limits of the assay
- test parameters: PET substrate: cryPow; 60 °C; pH 9.5; 24 h
Each record here notes measured terephthalic acid.

| sequence | value observed |
| --- | --- |
| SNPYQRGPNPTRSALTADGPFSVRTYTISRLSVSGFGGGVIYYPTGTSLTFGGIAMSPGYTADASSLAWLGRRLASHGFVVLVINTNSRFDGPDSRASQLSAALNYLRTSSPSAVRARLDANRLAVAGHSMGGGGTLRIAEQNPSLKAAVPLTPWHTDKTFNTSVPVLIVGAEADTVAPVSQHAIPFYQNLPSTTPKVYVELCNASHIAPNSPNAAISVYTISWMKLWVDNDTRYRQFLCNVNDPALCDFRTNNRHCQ [LCC-ICCG RIP] | 0.307 mM |

In plain terms, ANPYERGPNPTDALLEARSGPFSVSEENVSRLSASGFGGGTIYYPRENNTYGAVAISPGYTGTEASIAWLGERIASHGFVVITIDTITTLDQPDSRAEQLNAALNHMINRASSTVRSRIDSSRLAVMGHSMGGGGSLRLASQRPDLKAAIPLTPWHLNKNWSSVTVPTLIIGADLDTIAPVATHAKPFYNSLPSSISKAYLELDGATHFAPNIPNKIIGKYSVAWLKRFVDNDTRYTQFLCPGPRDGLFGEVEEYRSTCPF [TfCut2] has a documented terephthalic acid of 0.0959 mM

Summary for this sequence, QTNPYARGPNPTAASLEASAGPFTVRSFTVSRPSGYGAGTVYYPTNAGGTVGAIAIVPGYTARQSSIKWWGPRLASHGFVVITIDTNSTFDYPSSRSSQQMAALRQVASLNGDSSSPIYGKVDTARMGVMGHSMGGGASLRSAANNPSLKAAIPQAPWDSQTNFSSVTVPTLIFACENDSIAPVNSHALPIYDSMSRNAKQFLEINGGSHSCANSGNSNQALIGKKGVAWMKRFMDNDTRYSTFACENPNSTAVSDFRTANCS [DuraPETase] : terephthalic acid is 0.384 mM

Form: sequence = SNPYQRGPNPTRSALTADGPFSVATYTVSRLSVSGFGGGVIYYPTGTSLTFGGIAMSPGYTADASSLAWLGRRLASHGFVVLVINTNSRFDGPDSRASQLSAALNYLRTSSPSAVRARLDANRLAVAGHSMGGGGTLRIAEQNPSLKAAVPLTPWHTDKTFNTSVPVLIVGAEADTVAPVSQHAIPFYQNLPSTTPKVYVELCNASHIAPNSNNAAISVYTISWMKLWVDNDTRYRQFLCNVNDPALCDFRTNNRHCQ [LCC-ICCG] ; terephthalic acid = 0.516 mM

Item: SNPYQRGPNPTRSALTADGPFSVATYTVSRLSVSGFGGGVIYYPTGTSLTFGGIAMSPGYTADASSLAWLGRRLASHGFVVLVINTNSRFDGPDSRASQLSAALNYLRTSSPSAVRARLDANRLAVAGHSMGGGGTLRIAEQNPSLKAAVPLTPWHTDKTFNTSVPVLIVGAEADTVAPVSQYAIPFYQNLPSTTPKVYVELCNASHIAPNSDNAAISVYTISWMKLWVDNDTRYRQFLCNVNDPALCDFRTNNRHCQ [LCC-A2] | terephthalic acid: 0.789 mM

Reported terephthalic acid of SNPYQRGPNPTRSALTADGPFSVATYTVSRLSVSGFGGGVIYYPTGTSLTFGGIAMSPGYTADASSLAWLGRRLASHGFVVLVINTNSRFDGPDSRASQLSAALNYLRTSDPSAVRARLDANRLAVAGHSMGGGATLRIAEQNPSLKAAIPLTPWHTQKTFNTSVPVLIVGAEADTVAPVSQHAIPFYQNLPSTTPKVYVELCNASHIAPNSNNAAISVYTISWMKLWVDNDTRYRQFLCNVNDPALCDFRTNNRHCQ [LCC-ICCG DAQI] : 0.441 mM
